property: melting point

compound | property | observed-value
CCOC(=O)C(C)(C)n1c(=O)c2ccccc2n(CCCCBr)c1=O | melting point | 113 to 114 °C
c1ccc2c(c1)CC(CCN1CCN(c3cccc4[nH]ccc34)CC1)C2 | melting point | 146 to 147 °C
CCc1cc(O)c2cnn(C(C)=O)c2c1 | melting point | 161 to 163 °C
CCOC(=O)c1cc(OCc2ccccc2)ccc1O | melting point | 71.5 to 73 °C
CCCNC(=O)C1(CCCCc2ccc([N+](=O)[O-])cc2)c2ccccc2-c2ccccc21 | melting point | 109 to 110 °C
Nc1ccc2sc(Cl)nc2c1 | melting point | 146 to 149 °C
CCc1ccc2c(c1)C=Cc1sc(C)nc1C2c1cn(C)c(=O)[nH]c1=S (configuration not stated) | melting point | 265 °C

---

// values below are reported melting point
property: melting point

compound | observed-value
COc1cc(OC)cc(-c2ncn(-c3cc(OC)c(OC)c(OC)c3)c2-c2ccc(OC)c(O)c2)c1 | 110 to 111 °C
COc1ccc(C(C)(C)C)c(O)c1-c1nc2cc(S(=O)(=O)C(F)(F)F)ccc2[nH]1 | 55 to 56 °C
O=C(NC(=O)N1CCC(Oc2ccc(Cl)cc2)CC1)c1ccc(O)cc1 | 189 °C
CCCCN1C(=O)NC(CC(=O)O)C1=O (stereo not drawn) | 132 °C
c1ccc(CN2CCC(c3cc(-c4ccccc4)[nH]n3)CC2)cc1 | 130 to 131 °C
COc1ccc2c(CO)c(F)ccc2c1C(F)(F)F | 113 to 114 °C
CC(C)(C)C(=O)Nc1c(F)cc(F)cc1Oc1ccc(C2(C#N)CCCC2)cc1 | 103 to 105 °C
Cc1nc2c(OCCNCc3ccccc3)cccc2[nH]1 | > 250 °C
CC(=N)Nc1cccc(C(=N)N)c1 | 263 to 265 °C
OCC1C(Cl)=Cc2ccccc21 (stereo not drawn) | 104 to 105 °C
CCCc1nc2c(N)nc3cc(Oc4ccccc4N)ccc3c2n1CC(C)C | 197 to 199 °C
Cc1nc(-c2ccc(C#N)cc2)sc1C(=O)N1CO[C@@](Cn2cncn2)(c2ccc(F)cc2F)[C@H]1C | 200 to 201 °C
CCCCc1nc2c(N)nc3ccc(O)cc3c2n1CCCCNC(=O)N1CCOCC1 | 177 to 182 °C
CCCCN1CC[C@@H](CNC(=O)c2cc(Cl)c(N)c3c2OCCO3)[C@H](O)C1 (relative stereo) | 122 °C
CC1(C)Oc2ccccc2-n2c(CN3CCOCC3)ccc21 | 150 to 151 °C
O=C(NNC(=O)c1occ(-c2ccccc2)c1-c1ccccc1)c1ccc(O)c(C(F)(F)F)c1 | 142 to 143 °C
CC(C)(C)OC(=O)NC1CCCCCC=CC2CC2(C(=O)NS(=O)(=O)C2CC2)NC(=O)C2CC(OC(=O)c3cccc(C#N)c3)CN2C1=O (stereo not drawn) | 151 to 153 °C
C[C@H](NC(=O)OCc1ccccc1)C(=O)N[C@@H](Cc1ccccc1)C(=O)O | 121 to 122 °C

---

The entries below are paired with their reported melting point.

compound | melting point
N#Cc1ccccc1CNC(=O)C1Cc2ccccc2N1S(=O)(=O)c1ccc(-c2cccc(C(F)(F)F)c2)cc1 (configuration not stated) | 70 °C
CC(C)(OCc1cc2cc(Cl)ccc2n1S(=O)(=O)c1ccc2c(c1)OCCO2)C(=O)O | 156 to 158 °C
Cc1oc(C=Cc2cccc(C(F)(F)F)c2)nc1CO | 134 to 135 °C
O=C(NC1CC1)c1ccc(F)c(F)c1 | 104 to 108 °C
CC(C)(C)OC(=O)[C@H](CC(=O)c1ccc2oc3ccccc3c2c1)NC(=O)C(F)(F)F | 92 to 94 °C
CC(=NNc1ccc(C(F)(F)F)cc1)C(=O)O | 190 to 191 °C
C1=CC2=NCCC3CCOC23C=C1 (configuration not stated) | 170 to 171 °C
Cc1cccc(C)c1-n1cc(C#N)c(=O)n(C)c1=O | 198 to 200 °C
COc1cccc(CCN2C(=O)c3ccccc3C2(O)c2ccncc2)c1 (configuration not stated) | 190 °C
N#Cc1c(CF)nn(-c2c(Cl)cc(C(F)(F)F)cc2Cl)c1N | 139 to 141 °C
COc1cc2c(cc1OC)C1(CCN(CCc3ccc([N+](=O)[O-])cc3)CC1)N(Cc1ccc([N+](=O)[O-])cc1)CC2=O | 174 to 177 °C
CCCNc1cc(Nc2ccc(OC)cc2)ncn1 | 194 to 196 °C
CC(=Cc1ccc(-n2cnc3c2CCCC3)cc1)[N+](=O)[O-] | 147 to 149 °C
CCOC(=O)COc1cccc(/C=C/c2nc3ccccc3s2)c1 | 150 to 151 °C
CCCc1nc(SC)c(C=O)n1Cc1ccc(-c2ccccc2S(=O)(=O)NC(=O)NCc2ccccc2)cc1 | 180 °C
C=CCNc1nc(NCC=C)c2scc(Br)c2n1 | 87 to 88 °C
COc1ncccc1-c1cncc(OC2SCC(O)C(O)C2O)c1 (configuration not stated) | 209 °C

---

# Lookup of reported melting point keyed by entry
property: melting point

compound | property | observed-value
CCOC(=O)c1c(C)nc(NN)c2nnn(CC)c12 | melting point | 75 to 78 °C
COc1cc2c(cn1)CC(CC(=O)O)C=C2 (stereo not given) | melting point | 151 to 152 °C
O=C(NC[C@@H]1CN2C(=O)C[C@H]2O1)C1CCCCC1 (racemic) | melting point | 83 to 85 °C
CS(=O)c1nc(-c2ccccc2)cs1 (stereo not given) | melting point | 104 to 105 °C
CCCN1CC(NS(=O)(=O)N(CC)CC)CC2c3cccc4[nH]cc(c34)CC21 (stereo not given) | melting point | 160 to 162 °C

---

property: melting point

molecule | observed-value
COc1ccc(/C=C(/C(=O)O)c2cc(OC)c(OC)c(OC)c2)cc1 | 187 to 189 °C
COc1cc2c(cc1Nc1ncc(Cl)c(Nc3ccccc3S(=O)(=O)N(C)C)n1)CCN(CC(C)(C)O)CC2 | 188 to 189 °C
CC(C)(C)c1cccc(S(=O)(=O)Nc2ccc(C(F)(F)F)nc2I)c1 | 125 °C
CC(C)CC1(C(CC(C)N2C(=O)c3ccccc3C2=O)C(=O)NO)CCN(CCc2ccccc2)C1=O (stereo not given) | 113 to 114 °C
CC(C)(CO)NCC(O)Cn1ccnc1[N+](=O)[O-] (stereo not given) | 114 to 116 °C
O=C(CNc1ccc(F)cc1)N1CCN2C(=O)OC(c3ccccc3)(c3ccccc3)C2C1 (stereo not given) | 203 to 204 °C
CS(=O)(=O)c1ccc(-c2cccn2-c2ccc(F)c(Cl)c2)cc1 | 146 to 149 °C
COc1cc(N2CCN([C@H]3CC[C@@H](c4cn(C)c5ccc(C#N)cc54)CC3)CC2)c2ncc(C)cc2c1 | 190 to 192 °C
Cc1cc(Oc2ncc(C(F)(F)F)cc2Cl)nn1C(=O)NC1CC1 | 98 to 99 °C
Cc1cnc(C2=NC(C)(C(C)C)C(=O)N2)c(C(=O)c2cccs2)c1 (stereo not given) | 168 to 170 °C
Cc1nc(NC(=O)c2ccccc2)sc1C(=O)NCc1cccc(F)c1 | 216 to 217 °C
COc1cc(C(=O)c2ccc(CC(=O)O)s2)cc(OC)c1OC | 124 °C
Cc1nc2c3c(c(C(=O)N4CCOCC4)cc2n1C)CCC(c1ccccc1)O3 (stereo not given) | 291 to 293 °C
CC(C)Oc1cc(-n2c(=O)cc(C(F)(F)F)[nH]c2=O)c(F)cc1Cl | 195 to 197 °C
NC(=NO)c1c(F)cccc1Cl | 115 to 120 °C
Cc1ccc2ccccc2c1Nc1ccccc1C(=O)O | 215 to 216 °C
Nc1ccc(-c2nc3c(s2)C(=O)c2ccccc2C3=O)o1 | > 260 °C
CS(=O)c1ccnc(-c2nc(=O)c3ccccc3s2)c1 (stereo not given) | 205 to 206 °C
CC(=O)Oc1ccc(C2(c3ccc(OC(C)=O)cc3)C(Cl)(Cl)C23CCCCC3)cc1 | 162 to 163 °C
C[Si](C)(C)c1[nH]c2ccccc2c1C1CC1 | 78 to 81 °C
COc1ccc2c(c1)CCC1C2CCC2(C)C(NCCCCCCN)CCC12 (stereo not given) | 93 to 94 °C
CSc1nnsc1-c1cccs1 | 49 to 49.5 °C
CCCCNc1c(NCc2ccccc2)cc(C(=O)O)cc1S(N)(=O)=O | 198 to 199 °C
N#Cc1ccc(F)cc1C(F)(F)C(F)(F)c1ccccc1 | 68 to 70 °C
CCOC(=O)CCc1cccc(OCc2ccc(OCc3nc(-c4ccccc4)oc3C)cc2)c1 | 90 to 91 °C
CCn1c2c(c3ccc(OC)cc31)CN(C(=O)c1ccc(C)c3ccccc13)CC2 | 209 to 210 °C
CC1(C)CCc2c(N3CCCC3)nc3sc4c(NCC(=O)NCC5CCCO5)ncnc4c3c2C1 (stereo not given) | 210 to 211 °C
CNc1nc(-c2ccc(F)cc2)cc(C(C)C)n1 | 75 to 76 °C
COc1ccc(N2CCN(c3c(C)c(C)c4c(c3-c3ccoc3)CC(C)(C)O4)CC2)cc1 | 192 to 195 °C
CCCCCCCCCCCCCCCCSCC(C)(C)CO | 25 to 28 °C
O=C(Cl)N1CCC(Oc2ccc(F)c(Cl)c2)C1 (stereo not given) | 63 to 65 °C
CNC(=C[N+](=O)[O-])NCCCCOc1cccc(CCCN(C)C)c1 | 79 to 80.5 °C
CCc1cc(OCc2ccccc2)cc(C(=O)OC)c1C(=O)OC | 66 to 67 °C
Cc1ccc2ccc(NCc3c(C)c(CNc4ccc5ccc(C)nc5n4)c(C)c(CNc4ccc5ccc(C)nc5n4)c3C)nc2n1 | 207 to 208 °C
NC(=O)c1ccc(C(N)=O)c(CC(O)CO)c1 (stereo not given) | 194 °C
